Molecular target: CLR/RAMP2 receptor (UniProt Q16602 23-461; O60895 43-175, limits assumed)
Sequence (Q16602 23-461 limits assumed, chain 1 of 2): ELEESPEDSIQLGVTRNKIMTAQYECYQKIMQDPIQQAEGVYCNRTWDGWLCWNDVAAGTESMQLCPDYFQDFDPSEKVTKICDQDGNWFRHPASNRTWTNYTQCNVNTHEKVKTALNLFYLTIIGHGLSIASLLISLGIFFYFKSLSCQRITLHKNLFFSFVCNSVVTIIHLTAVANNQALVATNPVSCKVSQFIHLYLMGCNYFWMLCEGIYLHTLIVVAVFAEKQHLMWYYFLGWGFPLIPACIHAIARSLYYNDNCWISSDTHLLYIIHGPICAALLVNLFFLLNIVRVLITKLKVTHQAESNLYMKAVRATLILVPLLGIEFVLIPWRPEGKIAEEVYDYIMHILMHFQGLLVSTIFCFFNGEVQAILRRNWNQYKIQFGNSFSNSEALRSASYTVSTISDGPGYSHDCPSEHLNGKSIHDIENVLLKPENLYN
Sequence (O60895 43-175 limits assumed, chain 2 of 2): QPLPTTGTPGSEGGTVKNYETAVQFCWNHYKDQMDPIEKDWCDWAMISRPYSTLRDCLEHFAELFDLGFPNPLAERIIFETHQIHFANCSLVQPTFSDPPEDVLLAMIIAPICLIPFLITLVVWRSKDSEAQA
Test: cell-based or functional assay
Would you mind telling me the reported CLR/RAMP2 EC50 of each entry?
Number in nM, nothing else.

Fill in: CLR/RAMP2 EC50 of XLYENKPRRPYILKGCRFGTCTVQKLAHQIYQFTDKDVAPRSKISPQGY (Pyr(glu)- at N-terminus; miniPEG between LYENKPRRPYIL and K(PAL); K(PAL); -NH2) [NTSR1 and CLR/RAMP agonist MRL (SEQ ID NO: 223)] is ___
1

Recorded CLR/RAMP2 EC50 of KRPPGFSIKGCRFGTCTVQKLAHQIYQFTDKDVAPRSKISPQGY (Ace- at N-terminus; D/Nal in KRPPGFS-D/Nal-I; miniPEG before K(PAL); K(PAL); -NH2) [BDKRB1 antagonist and CLR/RAMP agonist MRL (SEQ ID NO: 231)] , please.
1

Entry RVYVHPAKGCRFGTCTVQKLAHQIYQFTDKDVAPRSKISPQGY (Sar at N-terminus (Sar-RVYVHPA); miniPEG before K(PAL); K(PAL); -NH2) [AGTR1 antagonist/CLR/RAMP agonist MRL (SEQ ID NO: 234)] : reported CLR/RAMP2 EC50 = ?
1

I have this binder here, XRPRLSHKGPLPFKGCRFGTCTVQKLAHQIYQFTDKDVAPRSKISPQGY (not fully specified; (Glp) at N-terminus; (Nle) in RPRLSHKGP(Nle)PF; miniPEG before K(PAL); K(PAL); -NH2) [AGTRL1 and CLR/RAMP agonist MRL (SEQ ID NO: 228)] , and I need its recorded CLR/RAMP2 EC50.
2
